Value source: patent US12516038B2

- STUDY_SYSTEM: HLA-DRB1*0401 (Homo sapiens (Human), UniProt P01903+P01911, A100K/A169T/DEL228-266/F76Y/I96L/K127E/L162R/M171V/N62H/P40V/Q125Y/R42H/S133A/S149N/S66Y/V115G/V209L/W38E)
- TEST_METHOD_NOTES: HLA-DR4 HTRF assay
- CONDITION_INFO: inhibition of loading of Alexa Fluor 647-labeled Cit-CII peptide onto HLA-DR4 (CLIP cleaved)

[
  {
    "COMPOUND": "NC(=O)c1ccc([C@H](Oc2ccc3c(c2)OCCC3=O)c2ccncn2)cc1 (single isomer, unassigned) [Example 33b]",
    "IC50": "590 nM"
  },
  {
    "COMPOUND": "COc1ccc(COc2ccc([C@@H](Oc3ccc4c(c3)OCCC4=O)c3ccncc3)cc2)cc1 (single isomer, unassigned) [Example 17a]",
    "IC50": "5800 nM"
  },
  {
    "COMPOUND": "Cc1c(O[C@H](c2ccncc2)c2ccc(C(N)=O)cc2OCc2ccccc2)ccc2c1OCCC2=O (single isomer, unassigned) [Example 86a]",
    "IC50": "740 nM"
  },
  {
    "COMPOUND": "CC[C@H]1CC(=O)c2ccc(O[C@@H](c3ccncc3)c3ccc(C(N)=O)cc3)cc2O1 (single isomer, unassigned) [Example 40b]",
    "IC50": "1300 nM"
  },
  {
    "COMPOUND": "Cc1cc2c(c(C)c1O[C@H](c1ccncc1)c1ccc(C(N)=O)cc1)OCCC2=O (single isomer, unassigned) [Example 89b]",
    "IC50": "470 nM"
  },
  {
    "COMPOUND": "CC[C@H]1CC(=O)c2ccc(OCc3ccnc(C)c3)cc2O1 (single isomer, unassigned) [Example 118b]",
    "IC50": "990 nM"
  },
  {
    "COMPOUND": "COc1c(O[C@@H](c2ccncc2)c2ccc(C(N)=O)cc2)ccc2c1OCCC2=O (single isomer, unassigned) [Example 100a]",
    "IC50": "6400 nM"
  },
  {
    "COMPOUND": "Cc1cc([C@H](Oc2ccc3c(c2)OCCC3=O)c2ccncc2)ccc1C(N)=O (single isomer, unassigned) [Example 35b]",
    "IC50": "830 nM"
  },
  {
    "COMPOUND": "NC(=O)c1ccc([C@@H](Oc2ccc3c(c2)OCCC3=O)c2ccccc2)cc1 (single isomer, unassigned) [Example 29b]",
    "IC50": "960 nM"
  },
  {
    "COMPOUND": "Cc1c(O[C@@H](c2ccncc2)c2cccc(S(C)(=O)=O)c2)c(F)cc2c1OCCC2=O (single isomer, unassigned) [Example 105b]",
    "IC50": "190 nM"
  },
  {
    "COMPOUND": "O=C1CCOc2cc(OC(c3ccccc3)c3cccnc3)ccc21 (racemic)",
    "IC50": "5000 nM"
  },
  {
    "COMPOUND": "Cc1cc(C(N)=O)ccc1[C@H](Oc1ccc2c(c1)OCCC2=O)c1ccncc1 (single isomer, unassigned) [Example 36a]",
    "IC50": "550 nM"
  },
  {
    "COMPOUND": "Cc1c(O[C@H](c2ccc(C(N)=O)cc2)c2ccc(F)c(F)c2)c(F)cc2c1OCCC2=O (single isomer, unassigned) [Example 91a]",
    "IC50": "550 nM"
  }
]
